Active and inactive are the calls of the source.
A short record of Kd observed with Serine/threonine-protein kinase N2 (Homo sapiens) follows.
Sequence (Q16513 whole entry): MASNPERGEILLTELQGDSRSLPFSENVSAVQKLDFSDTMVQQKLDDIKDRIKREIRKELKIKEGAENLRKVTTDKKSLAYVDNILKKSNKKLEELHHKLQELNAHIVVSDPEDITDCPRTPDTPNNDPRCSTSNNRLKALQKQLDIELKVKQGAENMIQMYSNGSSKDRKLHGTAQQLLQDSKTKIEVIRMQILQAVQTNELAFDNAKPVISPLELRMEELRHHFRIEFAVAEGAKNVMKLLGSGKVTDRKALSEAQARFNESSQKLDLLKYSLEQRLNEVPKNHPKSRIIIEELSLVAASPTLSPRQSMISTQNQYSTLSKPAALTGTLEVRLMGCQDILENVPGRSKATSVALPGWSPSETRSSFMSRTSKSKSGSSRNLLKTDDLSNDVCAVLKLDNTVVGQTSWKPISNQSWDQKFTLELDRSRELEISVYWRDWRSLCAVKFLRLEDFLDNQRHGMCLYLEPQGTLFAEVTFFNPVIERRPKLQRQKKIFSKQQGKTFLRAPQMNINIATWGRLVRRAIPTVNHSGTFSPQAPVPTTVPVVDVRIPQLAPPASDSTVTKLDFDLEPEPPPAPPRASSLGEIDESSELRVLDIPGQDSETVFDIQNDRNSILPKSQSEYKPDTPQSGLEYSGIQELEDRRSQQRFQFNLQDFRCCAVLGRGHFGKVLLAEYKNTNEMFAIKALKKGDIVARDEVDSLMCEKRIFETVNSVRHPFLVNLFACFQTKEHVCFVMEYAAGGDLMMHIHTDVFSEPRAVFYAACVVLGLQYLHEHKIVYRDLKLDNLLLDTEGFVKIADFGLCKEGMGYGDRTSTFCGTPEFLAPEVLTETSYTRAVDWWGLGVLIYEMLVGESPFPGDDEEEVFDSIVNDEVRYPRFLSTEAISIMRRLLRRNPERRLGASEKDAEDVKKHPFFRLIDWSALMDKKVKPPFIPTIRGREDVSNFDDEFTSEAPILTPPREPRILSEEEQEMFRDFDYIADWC

Entry "CCN(CCCOc1ccc2c(Nc3cc(CC(=O)Nc4cccc(F)c4)n[nH]3)ncnc2c1)CCOP(=O)(O)O" needs its Kd filled in; supply it.
> 30 µM (inactive)

Give Kd for "COc1cccc(Nc2ncnn3ccc(CN4CC[C@@H](N)[C@H](O)C4)c23)c1"
> 30 µM (inactive)

Look up Kd of "Cc1cc(Nc2nc(N[C@@H](C)c3ncc(F)cn3)ncc2Cl)n[nH]1" and report it.
> 30 µM (inactive)

Recall and state the measured Kd for "COc1cc(Nc2ncc(F)c(Nc3ccc4c(n3)N(COP(=O)(O)O)C(=O)C(C)(C)O4)n2)cc(OC)c1OC" .
> 30 µM (inactive)

Answer with the recorded Kd for the compound listed here: "N#CCNC(=O)c1ccc(-c2ccnc(Nc3ccc(N4CCOCC4)cc3)n2)cc1"
> 30 µM (inactive)

Name the recorded Kd of the item "O=C(NOC[C@H](O)CO)c1ccc(F)c(F)c1Nc1ccc(I)cc1F" in your answer.
> 30 µM (inactive)

Please list Kd recorded for the compound "O=C(O)c1ccc2c(c1)nc(Nc1cccc(Cl)c1)c1ccncc12"
> 30 µM (inactive)

====

Target: Rho-associated protein kinase 1 (Homo sapiens); note: in the data inactive means no Kd found up to 30 µM
Sequence (Q13464 whole entry): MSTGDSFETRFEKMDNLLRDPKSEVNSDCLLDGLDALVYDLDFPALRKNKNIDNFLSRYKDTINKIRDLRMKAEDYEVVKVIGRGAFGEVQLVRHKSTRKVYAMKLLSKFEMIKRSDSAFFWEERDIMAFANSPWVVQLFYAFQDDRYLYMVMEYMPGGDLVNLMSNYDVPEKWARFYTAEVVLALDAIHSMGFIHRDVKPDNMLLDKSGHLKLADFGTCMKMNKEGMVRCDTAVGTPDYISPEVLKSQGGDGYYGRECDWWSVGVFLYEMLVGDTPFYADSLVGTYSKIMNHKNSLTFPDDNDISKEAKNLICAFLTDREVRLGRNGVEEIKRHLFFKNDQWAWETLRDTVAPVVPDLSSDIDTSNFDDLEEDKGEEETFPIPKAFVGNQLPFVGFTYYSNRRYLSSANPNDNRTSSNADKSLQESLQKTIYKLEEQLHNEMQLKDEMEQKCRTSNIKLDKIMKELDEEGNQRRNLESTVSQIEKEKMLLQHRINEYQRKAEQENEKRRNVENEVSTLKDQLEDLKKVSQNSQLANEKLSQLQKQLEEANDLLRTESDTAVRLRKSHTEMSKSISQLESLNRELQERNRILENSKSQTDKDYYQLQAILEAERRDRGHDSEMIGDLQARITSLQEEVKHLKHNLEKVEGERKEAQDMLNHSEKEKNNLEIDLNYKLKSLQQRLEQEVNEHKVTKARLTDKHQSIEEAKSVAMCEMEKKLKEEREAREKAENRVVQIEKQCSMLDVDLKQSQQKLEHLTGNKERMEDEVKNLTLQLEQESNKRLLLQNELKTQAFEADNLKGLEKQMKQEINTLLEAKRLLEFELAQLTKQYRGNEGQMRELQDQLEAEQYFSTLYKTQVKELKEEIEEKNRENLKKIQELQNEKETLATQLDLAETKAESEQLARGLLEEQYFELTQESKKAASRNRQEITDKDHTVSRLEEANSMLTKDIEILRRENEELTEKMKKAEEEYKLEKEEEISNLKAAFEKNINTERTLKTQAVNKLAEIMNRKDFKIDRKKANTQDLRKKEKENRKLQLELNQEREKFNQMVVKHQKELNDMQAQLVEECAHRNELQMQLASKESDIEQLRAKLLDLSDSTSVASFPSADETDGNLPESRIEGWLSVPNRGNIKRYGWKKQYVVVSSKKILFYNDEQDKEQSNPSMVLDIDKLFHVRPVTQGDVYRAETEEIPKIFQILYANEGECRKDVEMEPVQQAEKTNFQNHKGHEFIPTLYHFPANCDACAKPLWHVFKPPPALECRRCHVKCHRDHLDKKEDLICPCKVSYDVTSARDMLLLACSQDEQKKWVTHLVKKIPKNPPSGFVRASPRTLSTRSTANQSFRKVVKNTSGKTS
Calls of active or inactive are those of the source.
Outcomes you can answer with include only these: active, inactive

Lab log entry: C=CC(=O)Nc1cccc(Nc2nc(Nc3ccc(N4CCN(C(C)=O)CC4)cc3OC)ncc2C(F)(F)F)c1 [ROCILETINIB] — outcome as called in the assay?
inactive

# fetch the recorded call for COCCN1CCN(Cc2ccc(-c3n[nH]c4c3C(=O)c3c(NC(=O)NN5CCOCC5)cccc3-4)cc2)CC1 [RGB-286638] here
inactive

Tell me the assay call for N#CCNC(=O)c1ccc(-c2ccnc(Nc3ccc(N4CCOCC4)cc3)n2)cc1 [MOMELOTINIB] please.
active

I'd appreciate the recorded outcome for COc1cc2ncnc(Nc3ccc(F)c(Cl)c3)c2cc1NC(=O)/C=C/CN1CCCCC1 [DACOMITINIB ANHYDROUS] from this test.
inactive

Called result for Cc1ccc(C(=O)Nc2ccc(Oc3cc4cnn(C)c4cc3-c3cn[nH]c3)c(F)c2)c(=O)n1-c1ccc(F)cc1 [MERESTINIB]
inactive

Per the assay record, what outcome was assigned to "Cn1cc(-c2[nH]c3cc(NC(=O)[C@H](N)C4CCCCC4)cc4c3c2C=NNC4=O)cn1" ?
inactive

Call for entry Cc1cc(-c2cc(OC(=O)c3ccccc3)ccc2Cl)cc2nnc(Nc3ccc(OCCN4CCCC4)cc3)nc12 [TG100-801] :
inactive

Check the results log: what was the call for CN1CCN(c2nc(C3=C(c4c[nH]c5ccccc45)C(=O)NC3=O)c3ccccc3n2)CC1 [SOTRASTAURIN] ?
inactive

For S=C(NCc1ccc2c(c1)OCO2)N1CCN(c2ncnc3c2oc2ccccc23)CC1 [AMUVATINIB] , what call appears in the results of this test?
inactive

Query: recorded result category for O=C(NOC[C@H](O)CO)c1ccc(F)c(F)c1Nc1ccc(I)cc1F [MIRDAMETINIB] in this test
inactive

How did this test come out for O=C(NC[C@H](O)CO)c1ccncc1Nc1ccc(I)cc1F [PIMASERTIB] ?
inactive

Query: recorded result category for COc1ccc(-c2ccc3ncc4c(c3c2)n(-c2ccc(N3CCNCC3)c(C(F)(F)F)c2)c(=O)n4C)cn1 [BGT-226 FREE BASE] in this test
inactive

Test call for this compound, please: C=CCN(/C=C1/C(=O)O[C@H](COC)[C@@]2(C)C1=C(O)C(=O)C1=C2[C@H](OC(C)=O)C[C@]2(C)C(=O)CC[C@@H]12)CC=C [SONOLISIB]
inactive

Please let me know the test result on file for C=CC(=O)Nc1cc(Nc2nccc(-c3cn(C)c4ccccc34)n2)c(OC)cc1N(C)CCN(C)C [OSIMERTINIB] .
inactive

How was CC(C)(O)CC(=O)NCCn1ccc2ncnc(Nc3ccc(Oc4cccc(C(F)(F)F)c4)c(Cl)c3)c21 [TAK-285] classified in this test?
inactive

// return assay outcome for COc1cc(Nc2ncc(F)c(Nc3ccc4c(n3)N(COP(=O)(O)O)C(=O)C(C)(C)O4)n2)cc(OC)c1OC [FOSTAMATINIB]
inactive

Any idea what this test logged for COc1cc2nccc(Oc3ccc(NC(=O)C4(C(=O)Nc5ccc(F)cc5)CC4)cc3)c2cc1OC [CABOZANTINIB] ?
inactive

Dear colleague, could you share the recorded outcome for COc1cccc2cc(-c3nc([C@H]4CC[C@H](C(=O)O)CC4)n4ncnc(N)c34)[nH]c12 [OSI-027] when you have a moment?
inactive

Called result for O[C@H]1CC[C@H](Nc2ncc3nc(Nc4c(F)cc(F)cc4F)n([C@H]4CCOC4)c3n2)CC1 [TANZISERTIB]
inactive

Outcome? C#Cc1cccc(Nc2ncnc3cc4c(cc23)OCCOCCOCCO4)c1 [ICOTINIB]
inactive
